Subject of test: human plasma kallikrein (human, UniProt P03952 20-390; P03952 391-638)
Sequence (P03952 20-390, chain 1 of 2): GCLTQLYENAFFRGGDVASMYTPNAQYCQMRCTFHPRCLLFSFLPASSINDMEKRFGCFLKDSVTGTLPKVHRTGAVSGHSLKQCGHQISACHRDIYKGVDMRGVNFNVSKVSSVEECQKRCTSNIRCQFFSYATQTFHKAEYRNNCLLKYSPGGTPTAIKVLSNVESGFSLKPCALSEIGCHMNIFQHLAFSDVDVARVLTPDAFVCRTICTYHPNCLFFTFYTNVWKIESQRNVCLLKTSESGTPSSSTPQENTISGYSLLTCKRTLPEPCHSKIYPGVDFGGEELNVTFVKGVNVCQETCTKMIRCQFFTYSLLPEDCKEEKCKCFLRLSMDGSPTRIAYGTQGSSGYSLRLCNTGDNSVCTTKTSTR
Sequence (P03952 391-638, chain 2 of 2): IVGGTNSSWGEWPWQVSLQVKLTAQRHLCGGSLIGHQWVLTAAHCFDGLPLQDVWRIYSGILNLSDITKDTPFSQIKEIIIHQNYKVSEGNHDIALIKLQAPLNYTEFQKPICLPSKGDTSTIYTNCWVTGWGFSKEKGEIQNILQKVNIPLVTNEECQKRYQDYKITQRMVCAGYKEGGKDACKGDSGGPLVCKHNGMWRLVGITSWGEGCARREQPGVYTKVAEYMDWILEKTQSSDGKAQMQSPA
Procedure details: cell-based or functional assay
Measure: % inhibition at 10 nM (%)
Express it in %; write the number only.

GET /values?readout=% inhibition at 10 nM&item= M196-D12 (Fab, V domains shown, Tested as Fab; printed HC runs into CH1) VH: EVQLLESGGGLVQPGGSLRLSCAASGFTFSRYSMRWVRQAPGKGLEWVSVIYPSGGQTYYADSVKGRFTISRDNSKNTLYLQMNSLRAEDTAVYYCAYRRTGIPRRDAFDIWGQGTMVTVSS VL: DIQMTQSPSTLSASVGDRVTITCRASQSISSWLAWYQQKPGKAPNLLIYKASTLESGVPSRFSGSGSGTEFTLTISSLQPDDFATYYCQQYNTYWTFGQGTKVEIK
94.1

Then this binder: M202-C09 (Fab, V domains shown, Tested as Fab; printed HC runs into CH1) VH: EVQLLESGGGLVQPGGSLRLSCAASGFTFSHYIMMWVRQAPGKGLEWVSGIYSSGGITVYADSVKGRFTISRDNSKNTLYLQMNSLRAEDTAVYYCAYRRIGVPRRDDFDIWGQGTMVTVSS VL: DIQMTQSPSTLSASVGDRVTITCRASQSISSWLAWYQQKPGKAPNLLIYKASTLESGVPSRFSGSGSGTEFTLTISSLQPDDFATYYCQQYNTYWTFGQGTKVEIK
92.3

Then this binder: M195-E12 (Fab, V domains shown) VH: EVQLLESGGGLVQPGGSLRLSCAASGFTFSYYIMFWVRQAPGKGLEWVSYISPSGGYTHYADSVKGRFTISRDNSKNTLYLQMNSLRAEDTAVYYCAYRRTGIPRRDAFDIWGQGTMVTVSS VL: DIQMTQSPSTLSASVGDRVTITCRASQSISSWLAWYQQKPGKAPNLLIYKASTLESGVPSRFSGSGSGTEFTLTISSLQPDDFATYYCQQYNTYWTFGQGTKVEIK
38
